All values here come from paper PMC3091225.

Target: TBG (wild-type, native, intact reactive loop) (Homo sapiens, UniProt P05543, DEL124-126/K123A)
Sequence (P05543 with tags, fused parts or gaps K123A/DEL124-126): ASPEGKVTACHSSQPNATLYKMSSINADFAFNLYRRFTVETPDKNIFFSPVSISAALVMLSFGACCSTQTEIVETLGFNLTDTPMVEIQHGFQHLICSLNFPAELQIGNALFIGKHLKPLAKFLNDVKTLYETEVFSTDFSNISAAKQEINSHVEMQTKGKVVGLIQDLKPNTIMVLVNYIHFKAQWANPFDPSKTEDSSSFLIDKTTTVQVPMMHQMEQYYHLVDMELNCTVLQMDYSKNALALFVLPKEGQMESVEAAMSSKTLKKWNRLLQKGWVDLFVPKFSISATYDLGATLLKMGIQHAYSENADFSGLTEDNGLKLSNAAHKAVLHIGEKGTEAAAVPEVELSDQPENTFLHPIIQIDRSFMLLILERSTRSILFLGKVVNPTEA
Test: direct fluorescence titration of TBG into fluorophore
Test Readout: Kd (nM)

Compound: O=C(N[C@@H](Cc1cc(I)c(Oc2cc(I)c(O)c(I)c2)c(I)c1)C(=O)O)c1ccc2c(c1)C1(OC2=O)c2ccc(O)cc2Oc2cc(O)ccc21 [T4–6-CF]
Test Readout: Kd
Units Of Measure: nM
Recorded Number: 24.9
